# system_name: CCK receptor (Pancreas) (Rattus norvegicus, UniProt P30551)
# Construct: The whole pancreas was dissected free of fat tissue and was homogenized
# Sequence (P30551 whole entry): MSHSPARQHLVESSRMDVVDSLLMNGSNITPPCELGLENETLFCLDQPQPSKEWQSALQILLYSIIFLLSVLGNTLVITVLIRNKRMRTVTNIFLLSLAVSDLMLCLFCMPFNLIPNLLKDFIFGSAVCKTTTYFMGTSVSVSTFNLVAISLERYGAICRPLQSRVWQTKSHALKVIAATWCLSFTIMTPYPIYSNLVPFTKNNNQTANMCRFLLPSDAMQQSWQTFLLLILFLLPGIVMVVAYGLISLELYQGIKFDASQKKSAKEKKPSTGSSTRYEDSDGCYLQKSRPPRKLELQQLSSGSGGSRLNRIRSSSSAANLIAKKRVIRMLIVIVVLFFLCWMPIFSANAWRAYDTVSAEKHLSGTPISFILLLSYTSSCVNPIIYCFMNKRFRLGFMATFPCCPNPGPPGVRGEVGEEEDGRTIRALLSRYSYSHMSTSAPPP
# test_description: CCK Receptor Binding (Pancreas), inhibition of 125I-CCK-33 binding
# condition_label: 125I-CCK-33, rat pancreas membranes
Assign labels as follows, please: True for IC50 below 2000 nM; False for IC50 equal to or exceeding 2000 nM.

>  <compound>
CC(C)(C)OC(=O)CN1C(=O)C(NC(=O)Nc2cccc3ccccc23)CCc2ccccc21 (centres unmarked)

>  <discrete_label>
True

$$$$
>  <compound>
Cc1ccc(NC(=O)NC2CCc3ccccc3N(CC(=O)OC(C)(C)C)C2=O)cc1 (centres unmarked)

>  <discrete_label>
True

$$$$
>  <compound>
Cc1cccc(NC(=O)NC2CCc3ccccc3N(CC(=O)N3CCCC3)C2=O)c1 (centres unmarked)

>  <discrete_label>
True

$$$$
>  <compound>
O=C(Nc1cccc2ccccc12)NC1CCc2ccccc2N(CC(=O)N2CCCC2)C1=O (centres unmarked)

>  <discrete_label>
True

$$$$
>  <compound>
O=C(O)CN1C(=O)C(NC(=O)Nc2cccc3ccccc23)CCc2ccccc21 (centres unmarked)

>  <discrete_label>
False

$$$$
>  <compound>
Cc1ccc(NC(=O)NC2CCc3ccccc3N(CC(=O)N3CCCC3)C2=O)cc1 (centres unmarked)

>  <discrete_label>
True

$$$$
>  <compound>
Cc1cccc(NC(=O)NC2CCc3ccccc3N(CC(=O)N3CCN(C)CC3)C2=O)c1 (centres unmarked)

>  <discrete_label>
True

$$$$
>  <compound>
COc1cccc(NC(=O)NC2CCc3ccccc3N(CC(=O)O)C2=O)c1 (centres unmarked)

>  <discrete_label>
False

$$$$
>  <compound>
COc1cccc(NC(=O)NC2CCc3ccccc3N(CC(=O)OC(C)(C)C)C2=O)c1 (centres unmarked)

>  <discrete_label>
False

$$$$
>  <compound>
CC(C)(C)OC(=O)CN1C(=O)C(NC(=O)Nc2ccc(Cl)cc2)CCc2ccccc21 (centres unmarked)

>  <discrete_label>
True

$$$$
>  <compound>
Cc1ccc(NC(=O)NC2CCc3ccccc3N(CC(=O)N3CCN(C)CC3)C2=O)cc1 (centres unmarked)

>  <discrete_label>
False

$$$$
>  <compound>
Cc1cccc(NC(=O)NC2CCc3ccccc3N(CC(=O)O)C2=O)c1 (centres unmarked)

>  <discrete_label>
True

$$$$
>  <compound>
Cc1cccc(NC(=O)NC2CCc3ccccc3N(CC(=O)OC(C)(C)C)C2=O)c1 (centres unmarked)

>  <discrete_label>
True

$$$$
>  <compound>
CN1CCN(C(=O)CN2C(=O)C(NC(=O)Nc3cccc4ccccc34)CCc3ccccc32)CC1 (centres unmarked)

>  <discrete_label>
False

$$$$

----------
Target protein (sequence): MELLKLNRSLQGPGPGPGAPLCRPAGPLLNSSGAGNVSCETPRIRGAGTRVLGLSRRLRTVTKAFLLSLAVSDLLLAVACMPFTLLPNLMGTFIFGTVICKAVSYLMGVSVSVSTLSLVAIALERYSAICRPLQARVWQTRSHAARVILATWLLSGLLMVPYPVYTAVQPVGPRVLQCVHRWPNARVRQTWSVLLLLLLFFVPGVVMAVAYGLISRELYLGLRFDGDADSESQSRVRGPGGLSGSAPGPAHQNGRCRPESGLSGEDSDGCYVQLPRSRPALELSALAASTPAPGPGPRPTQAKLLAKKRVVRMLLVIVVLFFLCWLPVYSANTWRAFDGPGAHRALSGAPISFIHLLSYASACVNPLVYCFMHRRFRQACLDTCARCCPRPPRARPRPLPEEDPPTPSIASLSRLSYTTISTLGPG
pIC50: −log10 of the molar value.

>  <molecule>
O=C(Nc1cccc2ccccc12)NC1CCc2ccccc2N(CC(=O)N2CCCC2)C1=O (centres unmarked)

>  <pIC50>
6.34

$$$$
>  <molecule>
COc1cccc(NC(=O)NC2CCc3ccccc3N(CC(=O)O)C2=O)c1 (centres unmarked)

>  <pIC50>
5.51

$$$$
>  <molecule>
CC(C)(C)OC(=O)CN1C(=O)C(NC(=O)Nc2ccc(Cl)cc2)CCc2ccccc21 (centres unmarked)

>  <pIC50>
6.92

$$$$
>  <molecule>
CC(C)(C)OC(=O)CN1C(=O)C(NC(=O)Nc2cccc3ccccc23)CCc2ccccc21 (centres unmarked)

>  <pIC50>
6.32

$$$$
>  <molecule>
Cc1ccc(NC(=O)NC2CCc3ccccc3N(CC(=O)OC(C)(C)C)C2=O)cc1 (centres unmarked)

>  <pIC50>
6.89

$$$$

----------
Let's look at some molecules and their measured IC50.
# system_name: CCK receptor (Brain, cerebral cortex) (Cavia porcellus, UniProt H0VZC5)

>  <molecule>
O=C(Nc1cccc2ccccc12)NC1CCc2ccccc2N(CC(=O)N2CCCC2)C1=O (centres unmarked)

>  <IC50, µM>
0.65

$$$$
>  <molecule>
Cc1ccc(NC(=O)NC2CCc3ccccc3N(CC(=O)N3CCN(C)CC3)C2=O)cc1 (centres unmarked)

>  <IC50, µM>
77

$$$$
